System: Escherichia coli ATCC 25922
assay.procedure: Minimum inhibitory concentration (MIC), CLSI broth micro-dilution, E. coli
Type: cell-based
measurement.parameters: Escherichia coli, ATCC25922, 22 h, Table 7, cation adjusted Mueller Hinton Broth + 0.002% Tween-80, 35° C.
readout.type: MIC (µM)
Reply with just the number (in µM).

input: Report MIC for Cc1nc(-c2ccc(C(C)(C)C)cc2)nc(C)c1C(=O)N[C@@H](CCN)C(=O)N(C)[C@@H]1C(=O)N[C@@H](C)C(=O)N[C@H](C(=O)NCC#N)Cc2ccc(N)c(c2)-c2cc1ccc2OCCN (racemic) tested on Escherichia coli ATCC 25922.
output: 0.38

input: Fill in the recorded MIC for this molecule, with Escherichia coli ATCC 25922 as test system: Cc1nc(-c2ccc(C(C)(C)C)cc2)nc(C)c1C(=O)N[C@@H](CCN)C(=O)N(C)[C@@H]1C(=O)N[C@@H](C)C(=O)N[C@H](C(=O)NCC#N)Cc2ccc(O)c(c2)-c2cc1ccc2OCCNCCCN (racemic)
output: 0.063

input: // lookup MIC | system=Escherichia coli ATCC 25922 | key= Cc1nc(-c2ccc(OC3CCCCC3)cc2)nc(C)c1C(=O)N[C@@H](CCNS(N)(=O)=O)C(=O)N(C)[C@@H]1C(=O)N[C@@H](C)C(=O)N[C@H](C(=O)NCC#N)Cc2ccc(O)c(c2)-c2cc1ccc2OCCN (racemic)
output: 1

input: Param readout= MIC; system= Escherichia coli ATCC 25922; entry= Cc1nc(-c2ccc(C(C)(C)C)cc2)nc(C)c1C(=O)N[C@@H](CCN)C(=O)N(C)[C@@H]1C(=O)N[C@@H](C)C(=O)N[C@H](C(=O)NCC#N)Cc2cc(OCCN)c(O)c(c2)-c2cc1ccc2O (racemic) ; returns value.
output: 0.75

input: Return MIC measured with Escherichia coli ATCC 25922 given this molecule: COc1c(NCCN)cc2cc1-c1cc(ccc1O)C[C@@H](C(=O)NCC#N)NC(=O)[C@H](C)NC(=O)[C@H]2N(C)C(=O)[C@H](CCN)NC(=O)c1c(C)nc(-c2ccc(C(C)(C)C)cc2)nc1C
output: 0.25

input: Recall the recorded MIC for Cc1nc(-c2ccc(C(C)(C)C)cc2)nc(C)c1C(=O)N[C@@H](CCN)C(=O)N(C)[C@@H]1C(=O)N[C@@H](C)C(=O)N[C@H](C(=O)NCC#N)Cc2ccc(O)c(c2)-c2cc1ccc2OCC(CN)CN (racemic) with Escherichia coli ATCC 25922 and state it.
output: 0.19

input: Lab request: please report MIC under test system Escherichia coli ATCC 25922 for Cc1nc(-c2ccc(C(C)(C)C)cc2)nc(C)c1C(=O)N[C@@H](CCN)C(=O)N(C)[C@@H]1C(=O)N[C@@H](C)C(=O)N[C@H](C(=O)NCC#N)Cc2ccc(OCCN)c(c2)-c2cc1cc(NCCN)c2O (racemic)
output: 1

input: Recall the recorded MIC for Cc1nc(-c2ccc(C(C)(C)C)cc2)nc(C)c1C(=O)N[C@@H](CCN)C(=O)N(C)[C@@H]1C(=O)N[C@@H](C)C(=O)N[C@H](C(=O)NCC#N)Cc2ccc(OCCN)c(c2)-c2cc1cc(OCCN)c2O with Escherichia coli ATCC 25922 and state it.
output: 0.17

input: // fetch Escherichia coli ATCC 25922 MIC for Cc1nc(-c2ccc(C(C)(C)C)cc2)nc(C)c1C(=O)N[C@@H](CCN)C(=O)N(C)[C@@H]1C(=O)N[C@@H](C)C(=O)N[C@H](C(=O)NCC#N)Cc2ccc(OC3CNC3)c(c2)-c2cc1ccc2O (racemic)
output: 0.75

input: I'm curious: which MIC was measured for Cc1nc(-c2ccc(C(C)(C)C)cc2)nc(C)c1C(=O)N[C@@H](CCN)C(=O)N(C)[C@@H]1C(=O)N[C@@H](C)C(=O)N[C@H](C(=O)NCC#N)Cc2ccc(OCCN)c(c2)-c2cc1ccc2CN (racemic) tested on Escherichia coli ATCC 25922?
output: 0.25

input: // lookup MIC | system=Escherichia coli ATCC 25922 | key= Cc1nc(-c2ccc(C(C)(C)C)cc2)nc(C)c1C(=O)N[C@@H](CNS(N)(=O)=O)C(=O)N(C)[C@@H]1C(=O)N[C@@H](C)C(=O)N[C@H](C(=O)NCC#N)Cc2ccc(OCCCN)c(c2)-c2cc1ccc2OCCCN (racemic)
output: 0.31
